# credit: ChEMBL document CHEMBL3396997

Assay: Drug concentration in brain of human SUP-M2 cells xenografted SCID mouse at 30 mg/kg, po measured after 6 hrs
Assay type: ADME, organism-based
Design: dose 30 mg/kg, route oral
Conditions: SCID, brain, read-out: Drug uptake
readout: concentration at 6 h (ng/g)

(A) COc1cc([C@@H]2CCN(CCO)C[C@@H]2O)ccc1Nc1ncc2ccc(-c3ccccc3OC)n2n1 (racemic)
(B) COc1cc([C@H]2CCN(CCO)C[C@@H]2O)ccc1Nc1ncc2ccc(-c3ccccc3OC)n2n1 (relative stereo)
(C) COc1cc(C2CCN(CCO)CC2O)ccc1Nc1ncc2ccc(-c3ccccc3OC)n2n1 (single isomer, unassigned; enantiomer 1)
// ascending sort on concentration at 6 h for the entries above Output spec: labels arranged per the requested ranking.
C, A, B

###

Assay: AUC (0 to infinity) in Sprague-Dawley rat at 5 mg/kg, po
Assay type: ADME, organism-based
Parameters: time infinity, dose 5 mg/kg, route oral
Conditions: plasma
readout: AUC(0-inf) (ng·h/mL)

(a) COc1cc([C@@H]2CCN(CCO)C[C@@H]2O)ccc1Nc1ncc2ccc(-c3ccccc3OC)n2n1 (racemic)
(b) COc1cc([C@H]2CCN(CCO)C[C@@H]2O)ccc1Nc1ncc2ccc(-c3ccccc3OC)n2n1 (relative stereo)
When the recorded AUC(0-inf) values are compared, which is smaller: that of a or that of b ? Please reply using the label of the selected record.
a
(a: 479 ng·h/mL, b: 708 ng·h/mL)

###

Biological target: Cytochrome P450 2C19 (Homo sapiens)
Sequence (P33261 whole entry): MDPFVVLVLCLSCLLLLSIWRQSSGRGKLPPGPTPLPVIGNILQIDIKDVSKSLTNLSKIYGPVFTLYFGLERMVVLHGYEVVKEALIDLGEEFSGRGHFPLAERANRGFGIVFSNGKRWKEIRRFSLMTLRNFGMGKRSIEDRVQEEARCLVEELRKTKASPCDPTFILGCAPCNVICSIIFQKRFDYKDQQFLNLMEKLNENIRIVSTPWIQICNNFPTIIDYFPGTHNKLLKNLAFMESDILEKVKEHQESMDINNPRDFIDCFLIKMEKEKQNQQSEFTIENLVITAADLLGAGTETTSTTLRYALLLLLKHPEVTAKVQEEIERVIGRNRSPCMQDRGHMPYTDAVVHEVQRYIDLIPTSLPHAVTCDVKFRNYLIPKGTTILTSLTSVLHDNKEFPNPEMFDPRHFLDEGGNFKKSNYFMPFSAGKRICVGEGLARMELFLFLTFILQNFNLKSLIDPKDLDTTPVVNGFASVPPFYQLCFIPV
readout: pIC50
Quick note: pIC50 values are minus log10 of concentrations in mol/L.

Need pIC50, item COc1cc([C@H]2CCN(CCO)C[C@@H]2O)ccc1Nc1ncc2ccc(-c3ccccc3OC)n2n1
4.77

###

The following molecules are shown together with reported half-life values.
Experiment: Half life in human liver microsomes
Type: ADME

[[record]]
molecule = "COc1cc([C@H]2CCN(CCO)C[C@@H]2O)ccc1Nc1ncc2ccc(-c3ccccc3OC)n2n1 (relative stereo)"
readout = "half-life"
observed_measurement = "> 40 min"

[[record]]
molecule = "COc1cc([C@@]2(O)CCNC[C@@H]2O)ccc1Nc1ncc2ccc(-c3ccccc3N(C)S(C)(=O)=O)n2n1"
readout = "half-life"
observed_measurement = "> 40 min"

[[record]]
molecule = "COc1cc([C@@H]2CCNC[C@@H]2O)ccc1Nc1ncc2ccc(-c3ccccc3OC)n2n1 (relative stereo)"
readout = "half-life"
observed_measurement = "> 40 min"

[[record]]
molecule = "COc1cc([C@@H]2CCN(CC(N)=O)C[C@@H]2O)ccc1Nc1ncc2ccc(-c3ccccc3OC)n2n1 (relative stereo)"
readout = "half-life"
observed_measurement = "19 min"

[[record]]
molecule = "COc1cc(C2CCN(C)CC2O)ccc1Nc1ncc2ccc(-c3ccccc3OC)n2n1 (racemic)"
readout = "half-life"
observed_measurement = "> 40 min"

[[record]]
molecule = "COc1cc([C@@]2(O)CCN(CC(N)=O)C[C@@H]2O)ccc1Nc1ncc2ccc(-c3ccccc3OC)n2n1"
readout = "half-life"
observed_measurement = "> 40 min"

[[record]]
molecule = "COc1cc([C@@]2(O)CCNC[C@@H]2O)ccc1Nc1ncc2ccc(-c3ccccc3OC)n2n1"
readout = "half-life"
observed_measurement = "> 40 min"

[[record]]
molecule = "COc1cc([C@@]2(O)CCN(C)C[C@@H]2O)ccc1Nc1ncc2ccc(-c3ccccc3OC)n2n1 (relative stereo)"
readout = "half-life"
observed_measurement = "> 40 min"


Need half-life, item COc1cc([C@@]2(O)CCN(CC(N)=O)C[C@@H]2O)ccc1Nc1ncc2ccc(-c3ccccc3N(C)S(C)(=O)=O)n2n1
32 min

Need half-life, item COc1cc([C@@H]2CCN(CCO)C[C@@H]2O)ccc1Nc1ncc2ccc(-c3ccccc3OC)n2n1 (racemic)
> 40 min
